Data provenance is patent US20260258084A1.

Test: Solubility testing of peptides at different pH
Format: physicochemical
Conditions: 50 mM phosphate buffer pH 7.4; target concentration 1 mg/ml; 2 hours agitation; read-out: Solubility Buffer pH 7.4
Procedure: Prior to the solubility measurement of a synthesized peptide batch, its purity was determined through UPLC/MS (methods B-G). For solubility testing the target concentration was 1 mg pure compound/ml. […] The solubility was determined by the comparison of the UV peak area of 2 μL-injections of a buffered sample diluted 1:5 with a standard curve of a dimethyl sulfoxide reference sample of the diluted in dimethyl sulfoxide with known concentration. […]
Positions of bridges follow the written chain, without caps; N, C: chain ends. Non-standard residues stand in square brackets, D forms with d. Residues, ends and D or L forms follow the SMILES beside them. 2Nal = N[C@@H](Cc1ccc2ccccc2c1)C(=O)O; NMeN = CN[C@@H](CC(N)=O)C(=O)O; Aib = CC(C)(N)C(=O)O; Ahx = NCCCCCC(=O)O
Test Readout: solubility at 2 h (µg/mL)
Quick reminder: number only, in µg/mL, skip the unit.

Memo: COc1ccc(C[C@@H]2NC(=O)[C@@H]3CSSC[C@H](NC(=O)CCCCCNC(=O)C[C@@H](C(=O)N[C@@H](CC(N)=O)C(=O)N[C@@H](CC(N)=O)C(N)=O)NC(=O)C(C)(C)NC(=O)[C@H](Cc4ccc5ccccc5c4)NC2=O)C(=O)N(C)[C@@H](CC(N)=O)C(=O)N[C@@H]([C@@H](C)O)C(=O)N[C@@H](Cc2c[nH]c4ccccc24)C(=O)N[C@@H](CCC(N)=O)C(=O)N3)cc1 [compound 6] ([Ahx]C[NMeN]TWQCY(Me)[2Nal][Aib]DNN-NH2; disulfide 2-7; lactam N-11) , reported solubility at 2 h: 20

---

Assay: Solubility testing of peptides at different pH
Type: physicochemical
Conditions: 50 mM phosphate buffer pH 9.0; target concentration 1 mg/ml; 2 hours agitation; read-out: Solubility Buffer pH 9.0
Experimental: Prior to the solubility measurement of a synthesized peptide batch, its purity was determined through UPLC/MS (methods B-G). For solubility testing the target concentration was 1 mg pure compound/ml. […] The solubility was determined by the comparison of the UV peak area of 2 μL-injections of a buffered sample diluted 1:5 with a standard curve of a dimethyl sulfoxide reference sample of the diluted in dimethyl sulfoxide with known concentration. […]
Starred links: 1 amine or outer side, 2 acyl side, 3 side chain; linkers in the order of their positions; H or OH if unused. Positions of bridges follow the written chain, without caps; N, C: chain ends. Non-standard residues stand in square brackets, D forms with d. Residues, ends and D or L forms follow the SMILES beside them. *: point of attachment. Trp(7-Me) = Cc1cccc2c(C[C@H](N)C(=O)O)c[nH]c12; X1 = O=C(CCCCN[*:3])N[C@@H](CS[*:2])C(=O)[*:1]; 2Nal = N[C@@H](Cc1ccc2ccccc2c1)C(=O)O; AEF = NCCOc1ccc(C[C@H](N)C(=O)O)cc1; Thp = NC1(C(=O)O)CCOCC1; Me2NCH2CH2 = CN(C)CC*; Aib = CC(C)(N)C(=O)O; Ahx = NCCCCCC(=O)O; Ava = NCCCCC(=O)O
The entries below come with measured solubility at 2 h values attached.
Quick reminder: number only, in µg/mL, skip the unit.

Consider the worked cases shown below.
INSERT INTO results (compound, test_readout, unit_string, reported_result) VALUES
  ('CC(=O)N[C@H]1CCCCNC(=O)[C@@H]2CSSC[C@H](NC(=O)[C@H](CCC(N)=O)NC(=O)[C@H](Cc3c[nH]c4ccccc34)NC1=O)C(=O)N[C@@H](Cc1ccc(OCCN(C)C)cc1)C(=O)N[C@@H](Cc1ccc3ccccc3c1)C(=O)NC1(CCOCC1)C(=O)N[C@H](C(=O)N[C@@H](C)C(=O)N[C@H](CC(C)C)C(N)=O)CCC(=O)NCCCCC(=O)N2 [compound 33] (Ac-KWQCY(Me2NCH2CH2)[2Nal][Thp]EA[dL]-NH2; linker 1-4-8 via X1)', 'solubility at 2 h', 'µg/mL', 130),
  ('C[C@@H](O)[C@@H]1NC(=O)[C@H](CC(N)=O)NC(=O)[C@@H]2CSSC[C@H](NC(=O)[C@H](CCC(N)=O)NC(=O)[C@H](Cc3c[nH]c4ccccc34)NC1=O)C(=O)N[C@@H](Cc1ccc(OCCN)cc1)C(=O)N[C@@H](Cc1ccc3ccccc3c1)C(=O)NC(C)(C)C(=O)N[C@H](C(=O)N[C@@H](CC(N)=O)C(=O)NCC(N)=O)CC(=O)NCCCCCC(=O)N2 [compound 9] ([Ahx]CNTWQC[AEF][2Nal][Aib]DNG-NH2; disulfide 2-7; lactam N-11)', 'solubility at 2 h', 'µg/mL', 750);

Next up:
Memo: CC(=O)NCCCC[C@@H]1NC(=O)[C@H](Cc2c[nH]c3c(C)cccc23)NC(=O)[C@H]([C@@H](C)O)NC(=O)[C@H](CC(N)=O)NC(=O)[C@@H]2CSSC[C@H](NC1=O)C(=O)N[C@@H](Cc1ccc(OCCN(C)C)cc1)C(=O)N[C@@H](Cc1ccc3ccccc3c1)C(=O)NC1(CCOCC1)C(=O)N[C@H](C(=O)N[C@@H](CC(N)=O)C(=O)N[C@@H](Cc1c[nH]cn1)C(N)=O)CCC(=O)NCCCCC(=O)N2 [compound 21] ([Ava]CNT[Trp(7-Me)]K(Ac)CY(Me2NCH2CH2)[2Nal][Thp]ENH-NH2; disulfide 2-7; lactam N-11) , reported solubility at 2 h: 230

---

System: Pancreatin
Test: Protease stability in simulated intestinal fluid (Pancreatin-SIF, FaSSIF)
Assay type: in vitro ADME
Conditions: 60 min, 1 μM peptide, 37° C., read-out: FaSSIF 60 (min), remaining percent of peptide
Positions of bridges follow the written chain, without caps; N, C: chain ends. Non-standard residues stand in square brackets, D forms with d. Residues, ends and D or L forms follow the SMILES beside them. *: point of attachment. Trp(7-Me) = Cc1cccc2c(C[C@H](N)C(=O)O)c[nH]c12; 2Nal = N[C@@H](Cc1ccc2ccccc2c1)C(=O)O; 3Pal = N[C@@H](Cc1cccnc1)C(=O)O; Thp = NC1(C(=O)O)CCOCC1; Me2NCH2CH2 = CN(C)CC*; Aib = CC(C)(N)C(=O)O; Ava = NCCCCC(=O)O; βAla = NCCC(=O)O; Sar = CNCC(=O)O
Test Readout: remaining at 1 h, 1 µM (%)
Quick reminder: number only, in %, skip the unit.

INSERT INTO assay_data (molecule, test_readout, unit_string, reported_result) VALUES
  ('CC(=O)NCCCC[C@@H]1NC(=O)[C@H](Cc2c[nH]c3c(C)cccc23)NC(=O)[C@H]([C@@H](C)O)NC(=O)[C@H](CC(N)=O)NC(=O)[C@@H]2CSSC[C@H](NC1=O)C(=O)N[C@@H](Cc1ccc(OCCN(C)C)cc1)C(=O)N[C@@H](Cc1ccc3ccccc3c1)C(=O)NC1(CCOCC1)C(=O)N[C@H](C(=O)N[C@@H](CO)C(=O)N[C@@H](Cc1cccnc1)C(=O)N(C)CC(N)=O)CCC(=O)NCCCCC(=O)N2 [compound 56] ([Ava]CNT[Trp(7-Me)]K(Ac)CY(Me2NCH2CH2)[2Nal][Thp]ES[3Pal][Sar]-NH2; disulfide 2-7; lactam N-11)', 'remaining at 1 h, 1 µM', '%', 90);

Next up:
Memo: CC(=O)NCCCC[C@@H]1NC(=O)[C@H](Cc2c[nH]c3c(C)cccc23)NC(=O)[C@H]([C@@H](C)O)NC(=O)[C@H](CC(N)=O)NC(=O)[C@@H]2CSSC[C@H](NC1=O)C(=O)N[C@@H](Cc1ccc(OCCN(C)C)cc1)C(=O)N[C@@H](Cc1ccc3ccccc3c1)C(=O)NC(C)(C)C(=O)N[C@H](C(=O)N[C@@H](CC(N)=O)C(=O)N[C@@H](Cc1c[nH]cn1)C(=O)NCCC(N)=O)CCC(=O)NCCCCC(=O)N2 [compound 48] ([Ava]CNT[Trp(7-Me)]K(Ac)CY(Me2NCH2CH2)[2Nal][Aib]ENH[βAla]-NH2; disulfide 2-7; lactam N-11) , reported remaining at 1 h, 1 µM: 80
